Data credit: paper PMC8809517

Catalogue of pKd readings, one per entry.
- study system: T1, GFP-9S library array, motif 4 ND N98S;D124I (synthetic construct, N98S;D124I)
- T1 chain: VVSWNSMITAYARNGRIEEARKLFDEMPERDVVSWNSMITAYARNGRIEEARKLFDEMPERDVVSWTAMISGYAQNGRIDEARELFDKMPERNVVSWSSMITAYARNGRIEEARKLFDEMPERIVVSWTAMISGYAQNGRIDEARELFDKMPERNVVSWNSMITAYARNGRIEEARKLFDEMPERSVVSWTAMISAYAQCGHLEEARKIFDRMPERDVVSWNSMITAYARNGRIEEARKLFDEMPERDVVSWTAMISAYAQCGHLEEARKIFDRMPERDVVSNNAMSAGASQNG
- experiment summary: high-throughput RNA pulldown from lysate on Ni-NTA beads; HRP: 50 mM Tris pH 8, 150 mM NaCl, 1 mM beta-mercaptoethanol, 50 ug/ml BSA, 3 ug/ml yeast RNA, 0.5% heparin; ITC and FP: Tris pH 8, 200 mM KCl, 5% glycerol; MST: 50 mM Tris pH 8, 200 mM NaCl, 1 mM DTT, BSA, heparin, 0.05% Tween 20
- cond: tags: N-terminal His-eGFP; label: 5' Cy5
pKd: −log10 of the molar value.
value type: pKd

1. AUUAGACGUGA (ssRNA) [Cy5-rpoA-G] : 7.15
2. AUUACACGUGA (ssRNA) [Cy5-rpoA] : 7.13
